B1: H2-Kb / Ed16-30 (parent complex)
chain 1: GEQVEQRPPHLSVREGDSAVIICTYTDPNSYYFFWYKQEPGAGLQLLMKVFSSTEINEGQGFTVLLNKKDKQLSLNLTAAHPGDSAVYFCAVSEPSSGQKLVFGQGTILKVYL
chain 2: EAAVTQSPRNKVAVTGGKVTLSCNQTNNHNNMYWYRQDTGHGLRLIHYSYGAGSTEKGDIPDGYKASRPSQENFSLILELATPSQTSVYFCAGRDTGQLYFGEGSKLTVL
chain 3: not shown
chain 4: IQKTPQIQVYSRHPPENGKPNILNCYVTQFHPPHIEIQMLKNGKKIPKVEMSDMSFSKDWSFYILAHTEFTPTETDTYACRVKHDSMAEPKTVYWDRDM
chain 5: SIINFEKL

Variants of: B1
ASSAY_PROTOCOL: % of reporter cells activated (NFAT-GFP), raw; further: test concentration or dose not given here
MEASUREMENT_KIND: ratio to parent
# output: bare number, no unit

Just so you know, measured ratio to parent for chain 5 I2E came out at 1.21

Just so you know, measured ratio to parent for chain 5 F5G came out at 0.976

Just so you know, measured ratio to parent for chain 5 L8Q came out at 1.13

Just so you know, measured ratio to parent for chain 5 L8G came out at 0.904

Just so you know, measured ratio to parent for chain 5 I2A came out at 1.2

Just so you know, measured ratio to parent for chain 5 N4M came out at 0.0762

Just so you know, measured ratio to parent for chain 5 E6I came out at 0.00701

Just so you know, measured ratio to parent for chain 5 S1Y came out at 0.55

Just so you know, measured ratio to parent for chain 5 E6L came out at 0.387

Just so you know, measured ratio to parent for chain 5 E6R came out at 0.363

Just so you know, measured ratio to parent for chain 5 E6H came out at 0.488

Just so you know, measured ratio to parent for chain 5 F5H came out at 1.21

Just so you know, measured ratio to parent for chain 5 F5W came out at 1.03

Just so you know, measured ratio to parent for chain 5 L8N came out at 0.798

Just so you know, measured ratio to parent for chain 5 I3Q came out at 0.322

Just so you know, measured ratio to parent for chain 5 L8D came out at 0.715

Just so you know, measured ratio to parent for chain 5 L8I came out at 1.19

Just so you know, measured ratio to parent for chain 5 E6Y came out at 0.308

Just so you know, measured ratio to parent for chain 5 K7T came out at 0.716

Just so you know, measured ratio to parent for chain 5 F5V came out at 1.25

Just so you know, measured ratio to parent for chain 5 F5S came out at 1.19

Just so you know, measured ratio to parent for chain 5 K7C came out at 0.563
